# Method summary: Phase 1 clinical study / Study 101: plasma epinephrine pharmacokinetics
# Type: in vivo
# Experimental context: human, 0.3 mg IM, read-out: mean baseline-corrected Cmax
Readout type: Cmax (µg/mL)
Express it in µg/mL; write the number only.

// query Cmax value for entry CNC[C@H](O)c1ccc(O)c(O)c1 [Epinephrine IM, epinephrine]
184
